Origin of measurements: patent US5547962A

- Tested on: Male Hartley guinea pigs
- Type: in vivo
- cond: 10 mg/kg i.v., UVA 90 minutes, 24 h after irradiation
Structures can show the parent of a compound that is named as a salt.
Recorded Phototoxicity: number of animals with erythemas/number of animals tested values for a group of molecules are listed next.

Study these solved cases before continuing.
>>> print(df.to_string())
                                   molecule  recordedmeasurement
0  Cc1c(N2C[C@@H](N)C3(CC3)C2)c(F)c(N)c2c(=O)c(C(=O)O)cn(C3CC3)c12                  0/5
1  Cl.Nc1c(F)c(N2C[C@@H](N)C3(CC3)C2)cc2c1c(=O)c(C(=O)O)cn2C1CC1 [Reference Compound B]                  3/5
2  Cc1c(N2C[C@@H](N)[C@@H](C)C2)c(F)c(N)c2c(=O)c(C(=O)O)cn(C3CC3)c12 (relative stereo)                  0/5
3  Cc1c(N2CC[C@H](N)C2)c(F)c(N)c2c(=O)c(C(=O)O)cn(C3CC3)c12.Cl                  0/5
4  Cc1c(N2CC[C@H](N)C2)c(F)cc2c(=O)c(C(=O)O)cn(C3CC3)c12 [Reference Compound F]                  4/5

What Phototoxicity: number of animals with erythemas/number of animals tested appears in the records for this molecule with Male Hartley guinea pigs? Cc1c(N2CCNCC2)c(F)c(N)c2c(=O)c(C(=O)O)cn(C3CC3)c12 [Reference Compound I, hydrochloride]
0/5

---

- System: K. pneumoniae HNR869
- testProtocol: Antibacterial activity, MIC by agar dilution
- Type: cell-based
- cond: Klebsiella pneumoniae, clinically isolated strain, gram -
Measured MIC values are reported for all entries that follow.
Give just the numeric value; µg/mL need not be written.

# annotated cases, reported MIC shown
                                   compound  recordedmeasurement
0  Cc1c(N2CCC(C)(N)C2)c(F)c(N)c2c(=O)c(C(=O)O)cn(C3CC3)c12 (centres unmarked) [Example 18]                 3.13
1  Cc1c(N2C[C@@H](N)C3(CC3)C2)c(F)c(N)c2c(=O)c(C(=O)O)cn(C3CC3)c12 [Example 10]                 1.56
2  Cc1c(N2C[C@@H](N)[C@@H](C)C2)c(F)c(N)c2c(=O)c(C(=O)O)cn(C3CC3)c12 (relative stereo) [Example 14]                 1.56
3  Cc1c(N2CC[C@H](N)C2)c(F)c(N)c2c(=O)c(C(=O)O)cn(C3CC3)c12.Cl [Example 12]                 1.56

Now examine the next entry.
Dear colleague, I am looking for the recorded MIC of the following compound: Cc1c(N2C[C@@H](N)C(C)(C)C2)c(F)c(N)c2c(=O)c(C(=O)O)cn(C3CC3)c12 [Example 16]
3.13

---

- Tested on: S. aureus HPC527
- testProtocol: Antibacterial activity, MIC by agar dilution
- Assay type: cell-based
- cond: Staphylococcus aureus, clinically isolated strain, gram +
reportedMetric: MIC

>>> print(df.to_string())
                                   compound      targetentity  recordedmeasurement
0  Cc1c(N2C[C@@H](N)C(C)(C)C2)c(F)c(N)c2c(=O)c(C(=O)O)cn(C3CC3)c12 [Example 16]  S. aureus HPC527          0.025 µg/mL
1  Cc1c(N2C[C@@H](N)[C@@H](C)C2)c(F)c(N)c2c(=O)c(C(=O)O)cn(C3CC3)c12 (relative stereo) [Example 14]  S. aureus HPC527          0.012 µg/mL
2  Cc1c(N2CC[C@H](N)C2)c(F)c(N)c2c(=O)c(C(=O)O)cn(C3CC3)c12.Cl [Example 12]  S. aureus HPC527          0.025 µg/mL
3  Cc1c(N2CCC(C)(N)C2)c(F)c(N)c2c(=O)c(C(=O)O)cn(C3CC3)c12 (centres unmarked) [Example 18]  S. aureus HPC527           0.05 µg/mL

# next compound below
Query: MIC; subject: Cc1c(N2C[C@@H](N)C3(CC3)C2)c(F)c(N)c2c(=O)c(C(=O)O)cn(C3CC3)c12 [Example 10]
0.025 µg/mL
